Tested on: KM12
Assay: NCI tumour cell line growth inhibition, 48 h
Activity calls are given as the source filed them. No stated cut-off is given here; in the data, active = GI50 up to about 1.1 µM and inactive = higher.
Classes used: active, inactive

>>> assigned_label("CCCCCCCCCCCCCCCC[N+](C)(C)Cc1ccc(C[N+](C)(C)CCCCCCCCCCCCCCCC)cc1")
"inactive"
>>> assigned_label("NS(=O)(=O)c1cc2c(cc1Cl)NC(C(=O)c1cc(=O)c3ccc(O)cc3o1)=NS2(=O)=O")
"inactive"
>>> assigned_label("Nc1c(-c2ccc(-c3c(N)[n+]([O-])c4ccccc4[n+]3[O-])cc2)[n+]([O-])c2ccccc2[n+]1[O-]")
"inactive"
>>> assigned_label("COc1ccc2nc3n(c2c1)C(=O)c1ccccc1-3")
"inactive"
>>> assigned_label("CCn1c(=O)nc2n(-c3ccccc3)c3ccccc3nc-2c1=O")
"inactive"
>>> assigned_label("Cc1nnc(Nc2ccc(Cl)cc2)o1")
"inactive"
>>> assigned_label("O=C1c2cccnc2-c2nccc3c2c1nc1cc(Br)ccc13")
"active"
>>> assigned_label("O=C1Oc2cc3c(c4cccc1c24)O[C@H](c1ccccc1)[C@@H](c1ccccc1)[C@@H]3c1ccc(Cl)cc1")
"inactive"
>>> assigned_label("CC1CC[C@@H](C(C)C)[C@H](Oc2nnc(C3OC(CO)C(O)C3O)o2)C1 (stereo not given in full)")
"inactive"
>>> assigned_label("C/C(=N\\NC(=S)N1CCCC1)c1nc2cccnc2[nH]1")
"active"

* * *

Test system: HT-29
Test: NCI tumour cell line growth inhibition, 48 h
The source made the active and inactive calls. Rule as the data show it: active = GI50 up to about 1.1 µM and inactive = higher.
EXPERIMENTAL_READOUT: GI50

>>> reported_value("COc1ccc(C(=O)/C=C/c2ccc(OCCCOc3ccc(/C=C/C(=O)c4ccc(OC)c(OC)c4)cc3)cc2)cc1OC")
"> 100 µM (inactive)"
>>> reported_value("CC1=NN(c2nc(N)nc(-c3cc4ccccc4oc3=N)n2)C(C)(C)C1")
"19.7 µM (inactive)"
>>> reported_value("N#C/C(=C/NC(=S)Nc1ccc(S(N)(=O)=O)cc1)C(N)=O")
"> 100 µM (inactive)"
>>> reported_value("Cc1cc2c(ccc[n+]2[O-])[n+]([O-])c1")
"> 100 µM (inactive)"
>>> reported_value("O=c1oc2ccccc2cc1-c1csc(Nc2cc(Cl)cc(Cl)c2)n1")
"2.85 µM (inactive)"
>>> reported_value("Oc1c(Br)cc(/C=C/c2ccnc(/C=C/c3cc(Br)c(O)c(Br)c3)c2)cc1Br")
"21.7 µM (inactive)"
>>> reported_value("Nc1ccc(-c2nc3ccc(Cc4ccc5nc(-c6ccc(N)cc6)oc5c4)cc3o2)cc1")
"> 100 µM (inactive)"
>>> reported_value("COc1ccc(/C=C2\\N=C3NC(=O)C(N4CCCCC4)=C(N)N3C2=O)cc1")
"> 100 µM (inactive)"
>>> reported_value("CC(C)(C)C(=O)Cc1cc2c(cc1C(=O)O)S(=O)(=O)NC(C(C)(C)C)=C2")
"> 100 µM (inactive)"
>>> reported_value("Cc1cc2c(cc1C)C(=O)c1ncccc1C2=O")
"23.3 µM (inactive)"

* * *

Reported GI50 values are given for each entry in this list.
Test system: MOLT-4
Assay: NCI tumour cell line growth inhibition, 48 h
Calls of active or inactive are those of the source. Cut-off read from the data, not from the text of the source: active = GI50 up to about 1.1 µM and inactive = higher.
EXPERIMENTAL_READOUT: GI50

>>> reported_value("Nc1ccc(-c2nc3ccc(Cc4ccc5nc(-c6ccc(N)cc6)oc5c4)cc3o2)cc1")
"67 µM (inactive)"
>>> reported_value("O=C1CC(CC(OCc2ccccc2)C(COCc2ccccc2)OCc2ccccc2)CC(=O)N1 (configuration not stated)")
"24.3 µM (inactive)"
>>> reported_value("Cc1ccc(S(=O)(=O)[N-]C2C(=O)c3ccccc3C(=O)C2[n+]2cccc(C(N)=O)c2)cc1 (configuration not stated)")
"> 100 µM (inactive)"
>>> reported_value("Cc1[nH]c2ncn(/N=C/c3ccccc3O)c(=N)c2c1Cc1ccccc1")
"30.8 µM (inactive)"
>>> reported_value("CS(=O)(=O)CC(=O)c1ccccc1")
"> 100 µM (inactive)"
>>> reported_value("Cc1cc2c(ccc[n+]2[O-])[n+]([O-])c1")
"> 100 µM (inactive)"
>>> reported_value("CCCCCN(CCCCC)C(=O)[C@@H](CCC(=O)O)NC(=O)c1cc2ccccc2[nH]1")
"21.5 µM (inactive)"
>>> reported_value("COC(=O)OC[C@H]1O[C@@H](n2cc(C)c(=O)[nH]c2=O)CC1OC(=O)OC (some centres not stated)")
"> 100 µM (inactive)"
>>> reported_value("Cc1cc(-c2nc3cccc(F)c3s2)ccc1N")
"42.9 µM (inactive)"
>>> reported_value("COc1ccc(C(CC(=O)c2ccc(O)cc2)C(C(=O)c2ccc(O)cc2)C(c2ccc(OC)cc2)C2C(=O)NC(=S)NC2=O)cc1 (configuration not stated)")
"37.7 µM (inactive)"
>>> reported_value("O=C(NC1C/C(=N/O)c2c(Br)sc(Br)c21)C(F)(F)F (configuration not stated)")
"26.3 µM (inactive)"
>>> reported_value("C/C=C(/I)CBr")
"15.9 µM (inactive)"
>>> reported_value("O=C(O)C12C=CC(C1)c1ccccc12 (configuration not stated)")
"> 100 µM (inactive)"
>>> reported_value("Cc1nn(-c2ccccc2)c2nc3ccc(Cl)cc3c(-c3ccccc3)c12")
"> 100 µM (inactive)"
>>> reported_value("CC1CC[C@@H](C(C)C)[C@H](Oc2nnc(C3OC(CO)C(O)C3O)o2)C1 (some centres not stated)")
"> 100 µM (inactive)"
>>> reported_value("CSCSCC(CO)NC(=O)/C=C/c1c(C)nc(O)nc1O (configuration not stated)")
"96.6 µM (inactive)"
>>> reported_value("N#Cc1c(-c2cccc(Br)c2)cc(-c2ccc(Cl)cc2)nc1N")
"15.8 µM (inactive)"
>>> reported_value("S=C1N=C2C(=N1)n1c3c(c4ccccc41)CCCC23 (configuration not stated)")
"36.6 µM (inactive)"
>>> reported_value("CCCCn1c(-c2ccccc2)cs/c1=N\\N=C1C=C(C(C)(C)C)C(=O)C(C(C)(C)C)=C1")
"> 100 µM (inactive)"
>>> reported_value("O=C(O)c1ccc(NS(=O)(=O)Cc2ccccc2)cc1")
"> 100 µM (inactive)"
>>> reported_value("COC1OC(C)C(OC(=O)C(C)(C)C)C(C)(O)C1O (configuration not stated)")
"> 100 µM (inactive)"
>>> reported_value("CN1N=C2c3ccccc3OC(c3ccccc3)[C@H]2C1c1ccccc1 (some centres not stated)")
"35.2 µM (inactive)"
